Numbers sourced from patent US9708370B2.

biological target: human GHS-R1a (Homo sapiens (Human), UniProt Q92847); assay: GHS-R1a binding assay, competition with 125I-ghrelin on membranes of LLC-PK1 cells expressing human GHS-R1a; conditions: Table 5; read-out: IC50 Binding GHS-R1a
Sequence (Q92847 whole entry): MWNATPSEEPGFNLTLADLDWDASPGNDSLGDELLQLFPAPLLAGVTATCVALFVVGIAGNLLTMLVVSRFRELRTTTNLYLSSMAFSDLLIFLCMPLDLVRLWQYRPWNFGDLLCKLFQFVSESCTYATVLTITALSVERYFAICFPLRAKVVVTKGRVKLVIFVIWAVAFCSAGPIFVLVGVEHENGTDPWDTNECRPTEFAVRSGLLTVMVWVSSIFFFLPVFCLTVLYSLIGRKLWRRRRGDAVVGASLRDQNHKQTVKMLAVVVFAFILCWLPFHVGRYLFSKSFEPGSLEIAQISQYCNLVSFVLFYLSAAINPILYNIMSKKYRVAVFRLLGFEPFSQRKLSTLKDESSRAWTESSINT
pIC50: −log10 of the molar value. Starred links: 1 amine or outer side, 2 acyl side, 3 side chain; linkers in the order of their positions; H or OH if unused. Non-standard residues stand in square brackets, D forms with d. Residues, ends and D or L forms follow the SMILES beside them. azaTyr = O=C(N(Cc1ccc(O)cc1)N[*:1])[*:2]; azaPhe = O=C(N(Cc1ccccc1)N[*:1])[*:2]
value-kind: pIC50

1. C[C@H](N)C(=O)NN(Cc1ccc(O)cc1)C(=O)N[C@@H](C)C(=O)N[C@@H](Cc1c[nH]c2ccccc12)C(=O)N[C@H](Cc1ccccc1)C(=O)N[C@@H](CCCCN)C(N)=O [CP-1B (iv), Ala-AzaTyr-Ala-Trp-D-Phe-Lys-NH2] (H-A[azaTyr]AW[dF]K-NH2)	< 5.00
2. C[C@H](N)C(=O)N[C@H](Cc1c[nH]c2ccccc12)C(=O)N[C@@H](C)C(=O)NN(Cc1ccccc1)C(=O)N[C@H](Cc1ccccc1)C(=O)N[C@@H](CCCCN)C(N)=O [CP-3 (iv), Ala-D-Trp-Ala-AzaPhe-D-Phe-Lys-NH2] (H-A[dW]A[azaPhe][dF]K-NH2)	< 5.00

====

target: human GHS-R1a (Homo sapiens (Human), UniProt Q92847); experiment: GHS-R1a binding assay, competition with 125I-ghrelin on membranes of LLC-PK1 cells expressing human GHS-R1a; conditions: Table 4; LLCPK-1 membranes overexpressing GHS-R1a; radioiodinated (1-28) rat ghrelin as tracer; read-out: EC50 (text: IC50 values from competition curves in GHS-R1a radioreceptor assay)
pIC50: −log10 of the molar value. Starred links: 1 amine or outer side, 2 acyl side, 3 side chain; linkers in the order of their positions; H or OH if unused. Non-standard residues stand in square brackets, D forms with d. Residues, ends and D or L forms follow the SMILES beside them. azaTyr = O=C(N(Cc1ccc(O)cc1)N[*:1])[*:2]; X3 = O=C(N(Cc1cccc2ccccc12)N[*:1])[*:2]; azaLeu = CC(C)CN(N[*:1])C(=O)[*:2]; X1 = O=C(N(CC1CCCCC1)N[*:1])[*:2]
value-kind: pIC50

1. C[C@H](NC(=O)[C@@H](Cc1c[nH]c2ccccc12)NC(=O)[C@@H](N)Cc1cnc[nH]1)C(=O)NN(Cc1ccc(O)cc1)C(=O)N[C@H](Cc1ccccc1)C(=O)N[C@@H](CCCCN)C(N)=O [DBG178p, His-D-Trp-Ala-azaTyr-D-Phe-Lys-NH2] (H-H[dW]A[azaTyr][dF]K-NH2)	4.80
2. C[C@H](NC(=O)[C@@H](Cc1c[nH]c2ccccc12)NC(=O)[C@@H](N)Cc1cnc[nH]1)C(=O)NN(Cc1cccc2ccccc12)C(=O)N[C@H](Cc1ccccc1)C(=O)N[C@@H](CCCCN)C(N)=O [DBG253-6, His-D-Trp-Ala-azaNal-1-D-Phe-Lys-NH2] (H-H[dW]A[X3][dF]K-NH2)	6.14
3. C[C@H](NC(=O)[C@@H](Cc1c[nH]c2ccccc12)NC(=O)[C@@H](N)Cc1cnc[nH]1)C(=O)NN(CC1CCCCC1)C(=O)N[C@H](Cc1ccccc1)C(=O)N[C@@H](CCCCN)C(N)=O [DBG253-4, His-D-Trp-Ala-azaCha-D-Phe-Lys-NH2] (H-H[dW]A[X1][dF]K-NH2)	5.37
4. CC(C)CN(NC(=O)[C@H](C)NC(=O)[C@@H](Cc1c[nH]c2ccccc12)NC(=O)[C@@H](N)Cc1cnc[nH]1)C(=O)N[C@H](Cc1ccccc1)C(=O)N[C@@H](CCCCN)C(N)=O [DBG253-2, His-D-Trp-Ala-azaLeu-D-Phe-Lys-NH2] (H-H[dW]A[azaLeu][dF]K-NH2)	4.71
5. CC(C)CN(NC(=O)[C@@H](Cc1c[nH]c2ccccc12)NC(=O)[C@@H](N)Cc1cnc[nH]1)C(=O)N[C@@H](Cc1c[nH]c2ccccc12)C(=O)N[C@H](Cc1ccccc1)C(=O)N[C@@H](CCCCN)C(N)=O [DBG201-A, His-D-Trp-azaLeu-Trp-D-Phe-Lys-NH2] (H-H[dW][azaLeu]W[dF]K-NH2)	5.92
6. C[C@H](NC(=O)[C@@H](Cc1c[nH]c2ccccc12)NC(=O)[C@@H](N)Cc1cnc[nH]1)C(=O)N[C@@H](Cc1ccc(O)cc1)C(=O)N[C@H](Cc1ccccc1)C(=O)N[C@@H](CCCCN)C(N)=O [DBG253-7, His-D-Trp-Ala-Tyr-D-Phe-Lys-NH2] (H-H[dW]AY[dF]K-NH2)	6.11
